% apoptotic cells, CESS values, listed per item
Biological target: Fas on the cell surface of human cell lines (MOLT-4, CESS, T47D) (human, UniProt P25445)
Experiment: cell-based or functional assay
PARAMETER: % apoptotic cells, CESS (% apoptotic cells)

BINDER | READING
HuABL364 Ig-FasL5 H148S (other) heavy (part 1 of 2): EVQLLESGGGLVQPGGSLRLSCAASGFTFSDYYMYWVRQAPEKRLEWVAYISNGGGSSHYVDSVKGRFTISRDNAKNTLYLQMNSLRAEDTALYHCARGMDYGAWFAYWGQGTLVTVSS heavy (part 2 of 2): GTGHPSPPPEKKELRKVASLTGKSNSRSMPLEWEDTYGIVLLSGVKYKKGGLVINETGLYFVYSKVYFRGQSCNNLPLSHKVYMRNSKYPQDLVMMEGKMMSYCTTGQMWARSSYLGAVFNLTSADHLYVNVSELSLVNFEESQTFFGLYKL light: DIVMTQSPLSLPVTPGEPASISCRSSQSIVHSNGNTYLEWYLQKPGQSPQLLISKVSNRFSGVPDRFSGSGSGTDFTLKISRVEAEDVGVYYCFQGSHVPFTFGQGTKLEIK | 26
HuABL364 Ig-FasL5 (other) heavy (part 1 of 2): EVQLLESGGGLVQPGGSLRLSCAASGFTFSDYYMYWVRQAPEKRLEWVAYISNGGGSSHYVDSVKGRFTISRDNAKNTLYLQMNSLRAEDTALYHCARGMDYGAWFAYWGQGTLVTVSS heavy (part 2 of 2): GTGHPSPPPEKKELRKVAHLTGKSNSRSMPLEWEDTYGIVLLSGVKYKKGGLVINETGLYFVYSKVYFRGQSCNNLPLSHKVYMRNSKYPQDLVMMEGKMMSYCTTGQMWARSSYLGAVFNLTSADHLYVNVSELSLVNFEESQTFFGLYKL light: DIVMTQSPLSLPVTPGEPASISCRSSQSIVHSNGNTYLEWYLQKPGQSPQLLISKVSNRFSGVPDRFSGSGSGTDFTLKISRVEAEDVGVYYCFQGSHVPFTFGQGTKLEIK | 88
HuABL364 Ig-FasL5 L170A (other) heavy (part 1 of 2): EVQLLESGGGLVQPGGSLRLSCAASGFTFSDYYMYWVRQAPEKRLEWVAYISNGGGSSHYVDSVKGRFTISRDNAKNTLYLQMNSLRAEDTALYHCARGMDYGAWFAYWGQGTLVTVSS heavy (part 2 of 2): GTGHPSPPPEKKELRKVAHLTGKSNSRSMPLEWEDTYGIVALSGVKYKKGGLVINETGLYFVYSKVYFRGQSCNNLPLSHKVYMRNSKYPQDLVMMEGKMMSYCTTGQMWARSSYLGAVFNLTSADHLYVNVSELSLVNFEESQTFFGLYKL light: DIVMTQSPLSLPVTPGEPASISCRSSQSIVHSNGNTYLEWYLQKPGQSPQLLISKVSNRFSGVPDRFSGSGSGTDFTLKISRVEAEDVGVYYCFQGSHVPFTFGQGTKLEIK | 87
HuABL364 Ig-FasL5 Y192A (other) heavy (part 1 of 2): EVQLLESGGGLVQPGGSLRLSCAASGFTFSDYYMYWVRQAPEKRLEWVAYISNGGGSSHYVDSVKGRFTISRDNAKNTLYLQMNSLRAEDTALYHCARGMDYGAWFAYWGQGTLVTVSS heavy (part 2 of 2): GTGHPSPPPEKKELRKVAHLTGKSNSRSMPLEWEDTYGIVLLSGVKYKKGGLVINETGLYFVASKVYFRGQSCNNLPLSHKVYMRNSKYPQDLVMMEGKMMSYCTTGQMWARSSYLGAVFNLTSADHLYVNVSELSLVNFEESQTFFGLYKL light: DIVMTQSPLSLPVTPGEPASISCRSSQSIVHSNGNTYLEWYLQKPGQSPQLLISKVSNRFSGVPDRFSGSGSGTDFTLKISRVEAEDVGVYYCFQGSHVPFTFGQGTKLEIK | 25

Values were extracted from patent US6046310.
